Cited source for all entries: paper PMC11088877

SUBJECT OF TEST: human α2β2γ1 complex (WT) (Homo sapiens, UniProt P54619+P54646)
Construct: made in house; host or cells: Escherichia coli
Sequence (P54619 whole entry): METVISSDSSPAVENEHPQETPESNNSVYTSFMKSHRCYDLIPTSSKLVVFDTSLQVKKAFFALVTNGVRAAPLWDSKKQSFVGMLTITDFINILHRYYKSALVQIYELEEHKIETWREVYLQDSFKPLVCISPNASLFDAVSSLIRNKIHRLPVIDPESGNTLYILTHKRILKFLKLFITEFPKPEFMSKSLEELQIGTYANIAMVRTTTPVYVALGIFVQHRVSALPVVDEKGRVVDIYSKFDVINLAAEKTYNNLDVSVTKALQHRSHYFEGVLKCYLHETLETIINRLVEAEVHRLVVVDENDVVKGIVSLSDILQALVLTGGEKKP
Sequence (P54646 whole entry): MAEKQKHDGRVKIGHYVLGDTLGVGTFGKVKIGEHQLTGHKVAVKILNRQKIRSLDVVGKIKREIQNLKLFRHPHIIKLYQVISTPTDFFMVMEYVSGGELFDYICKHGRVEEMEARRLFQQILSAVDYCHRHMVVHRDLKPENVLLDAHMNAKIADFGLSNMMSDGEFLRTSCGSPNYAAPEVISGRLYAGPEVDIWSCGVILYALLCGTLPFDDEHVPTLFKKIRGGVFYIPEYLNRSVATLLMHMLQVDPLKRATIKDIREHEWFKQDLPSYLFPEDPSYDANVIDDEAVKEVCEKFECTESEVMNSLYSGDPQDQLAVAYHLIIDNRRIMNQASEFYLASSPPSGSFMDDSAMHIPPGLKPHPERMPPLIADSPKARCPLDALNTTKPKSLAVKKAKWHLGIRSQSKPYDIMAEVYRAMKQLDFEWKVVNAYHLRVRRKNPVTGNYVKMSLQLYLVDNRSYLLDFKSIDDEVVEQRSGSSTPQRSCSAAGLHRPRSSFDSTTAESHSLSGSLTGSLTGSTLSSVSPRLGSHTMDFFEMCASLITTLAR
Sequence (O43741 whole entry partner): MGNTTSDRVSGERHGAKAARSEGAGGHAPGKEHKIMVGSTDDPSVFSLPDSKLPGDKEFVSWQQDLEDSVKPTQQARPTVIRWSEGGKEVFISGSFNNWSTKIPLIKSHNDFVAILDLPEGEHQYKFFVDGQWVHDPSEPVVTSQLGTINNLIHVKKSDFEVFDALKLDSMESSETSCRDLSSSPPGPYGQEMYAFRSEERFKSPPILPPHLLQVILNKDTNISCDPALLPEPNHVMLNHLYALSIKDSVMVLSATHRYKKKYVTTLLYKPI
ASSAY NOTES: Allosteric activation of WT human α2β2γ1 AMPK complex by AMP and ADP
Format: biochemical
ASSAY SETUP: 5.0 mM ATP
PROPERTY NAME: pIC50
pIC50 here: minus log base 10 of the concentration, concentration in moles per litre.

INPUT SMILES: Nc1ncnc2c1ncn2[C@@H]1O[C@H](COP(=O)(O)OP(=O)(O)O)[C@@H](O)[C@H]1O
pIC50: 2.92

In the following, a different compound is considered.
Dear colleague, I am looking for the recorded pIC50 of the following compound: `Nc1ncnc2c1ncn2[C@@H]1O[C@H](COP(=O)(O)O)[C@@H](O)[C@H]1O`
1.28
